# System: TNFα secretion, THP-1 cells
# methodNotes: TEST C: Inhibition of TNFα Secretion (THP-1 cells, γ-interferon/LPS)
# Type: cell-based
# measurementSetup: Homo sapiens, LPS, γ-interferon, 40 hours, hydrogen-oxalate salt
pIC50: −log10 of the molar value.

{"columns": ["smiles", "targetSystem", "pIC50"],
 "data": [
  ["CCc1cc2cc(OCCO)c(OC)cc2c(-c2cc(OC(C)C)cc(OC(C)C)c2)n1", "TNFα secretion, THP-1 cells", "~7.00"]
]}
